Test system: RPMI-8226 leukemia
measurement.description: NCI tumour cell line growth inhibition, 48 h
Where a SMILES comes first, the peptide text is derived from it. The star is where a group is joined. Boc = CC(C)(C)OC(=O)*
recorded.endpoint: TGI

| compound | TGI |
| --- | --- |
| [C-]#[N+][C@@H]1C2[C@H](CC[C@@]1(C)O)C(=C)CC[C@@H]2[C@@]1(C)CC[C@H](Cl)C(C)(C)O1 (some centres undefined) | 20.9 µM |
| COc1ccc(C2=C3c4cc(OC)c(OC)cc4CCN3C(=S)SS2)cc1OC | > 100 µM |
| C/C(=N\NC1=NCCN1)c1cn(C2=NCCN2)nc1C | > 100 µM |

IN: Supply TGI value. Item: COc1ccc(S(=O)(=O)N/N=C\c2cc([N+](=O)[O-])cc(I)c2O)c(OC)c1OC
OUT: 71.6 µM

IN: Answer with the recorded TGI for the compound listed here: O=C(Nc1cccc(-n2cc(-c3ccncc3)c(-c3ccc(Cl)c(O)c3)n2)c1)Nc1ccc(Cl)c(C(F)(F)F)c1
OUT: 1.67 µM

IN: Please give the documented TGI of CC1CC(C)CC(NC2=NCCO2)C1 (centres undefined)
OUT: > 100 µM

IN: Return value of TGI for input CCCCN1CCN(c2ccc3nc(-c4ccc5nc(-c6ccc(OC)c(OC)c6)[nH]c5c4)[nH]c3c2)CC1 , no commentary.
OUT: 2.12 µM

IN: Give recorded TGI. O=P(O)(NCCCl)NCCCl
OUT: > 100 µM

IN: Indicate its recorded TGI; the compound in question is Cc1cc(S(=O)(=O)n2ccnc2Oc2cccc(Cl)c2)c(SSc2cc(Cl)c(C)cc2S(=O)(=O)n2ccnc2Oc2cccc(Cl)c2)cc1Cl
OUT: > 38.7 µM

IN: Hello, please tell me recorded TGI for this one: O=C1C=CC(=O)N1C1CCCCCCCCCCC1
OUT: 34 µM

IN: Answer with the recorded TGI for the compound listed here: CSC1=NN(c2ccccc2)C(=O)C1=C(SC)SC
OUT: 47 µM

IN: Entry CCOC(=O)c1sc2nc(SC)nc3c2c1NCN3C1CC1 needs its TGI filled in; supply it.
OUT: > 100 µM

IN: Consider the compound COC1CC(OC2C(C)OC(OC3C(C)OC(OC4C(C)OC(O[C@H]5CC[C@@]6(C)C(=CC[C@]7(O)[C@@H]6C[C@@H](OC(=O)/C=C(\C)C(C)C)[C@@]6(C)[C@]7(O)CC[C@@]6(O)C(C)=O)C5)CC4OC)CC3OC)CC2OC)OC(C)C1O (some centres undefined) . State its measured TGI.
OUT: > 12.5 µM

IN: Return reported TGI. Input compound: O=S(=O)(O)SC/C=C\CSS(=O)(=O)O
OUT: > 100 µM

IN: Read off the recorded TGI for CC(C)c1cc(Cl)nc(Cl)n1
OUT: > 100 µM

IN: Return TGI (reported value) for this compound: C[C@@H]1C[N+]2([O-])[C@H]3C4=CCC[C@@H]4CC[C@H]3[C@@]3(C)OC(=O)CC[C@]34CC[C@H]1[C@@H]42 (some centres undefined)
OUT: > 60 µM

IN: Given the compound CC(C)(C)OC(=O)NC(Cc1ccc(O)cc1)C(=O)NC(CCCCN)C(=O)O (stereo not drawn) (Boc-Tyr-Lys-OH; configuration not given here) , write its reported TGI.
OUT: 84.5 µM

IN: For Cc1ccc([N+](=O)[O-])cc1S(=O)(=O)Nc1ccc(C(=O)/C=C/c2cccs2)cc1 , write its TGI.
OUT: > 100 µM

IN: Retrieve TGI measured for CC(CC[C@@H](C)C1CCC2[C@@H]3CC(O)C4CC(O)[C@@H](O)C[C@]4(C)C3CC[C@@]21C)C(C)(C)C (some centres undefined) and print it.
OUT: > 100 µM

---

Test system: OVCAR-8 ovarian
measurement.description: NCI tumour cell line growth inhibition, 48 h
recorded.endpoint: TGI

IN: Dear colleague, please send me the reported TGI for COc1ccc2cc1Oc1ccc(cc1)CC1c3cc4c(cc3CCN1C)Oc1c(OC)cc3c(c1O4)C(C2)N(C)CC3 (stereo not given) when you can.
OUT: 5.45 µM

---

Test system: SK-MEL-28 melanoma
measurement.description: NCI tumour cell line growth inhibition, 48 h
Entries annotated with measured GI50

| molecule | GI50 |
| --- | --- |
| O=C1Nc2cc(Cl)ccc2/C1=C\c1c(-c2ccc(F)cc2)nc2ccccn12 | 995 nM |
| C[C@@H]1C[N+]2([O-])[C@H]3C4=CCC[C@@H]4CC[C@H]3[C@@]3(C)OC(=O)CC[C@]34CC[C@H]1[C@@H]42 (stereo partly drawn) | > 60000 nM |

// next item, GI50 requested
IN: Note down GI50 recorded for COc1ccc(C(=O)c2cc(OC)c3c(c2)OCO3)cc1O
OUT: 457 nM

---

Tested on: IGROV1 ovarian
measurement.description: NCI tumour cell line growth inhibition, 48 h
recorded.endpoint: TGI

| compound | TGI |
| --- | --- |
| CC(CC[C@@H](C)C1CCC2[C@@H]3CC(O)C4CC(O)[C@@H](O)C[C@]4(C)C3CC[C@@]21C)C(C)(C)C (some centres undefined) | > 100 µM |
| O=S(=O)(Nc1ccccc1)c1ccc(-c2c3nc(c(-c4ccc(S(=O)(=O)Nc5ccccc5)cc4)c4ccc([nH]4)c(-c4ccc(S(=O)(=O)Nc5ccccc5)cc4)c4nc(c(-c5ccc(S(=O)(=O)Nc6ccccc6)cc5)c5ccc2[nH]5)C=C4)C=C3)cc1 | > 100 µM |
| C/C(=N\O)c1ccc(Nc2nc3ccccc3c3occc23)cc1 | 29.6 µM |
| O=C(Nc1cccc(-n2cc(-c3ccncc3)c(-c3ccc(Cl)c(O)c3)n2)c1)Nc1ccc(Cl)c(C(F)(F)F)c1 | 2.43 µM |
| COc1ccc(SCc2cc(OC)c(OC)c(OC)c2)cc1OC | > 100 µM |
| O=C1CCCCCCCCCCC(=O)N2CCOCCOCCN1Cc1cccc(n1)C2 | > 100 µM |
| CC1(C)OC2C(CO)OC(n3cnc(N)nc3=O)C2O1 (centres undefined) | > 100 µM |
| O=C(O)CNC(=O)C(CS)Cc1ccccc1 (centres undefined) | > 25 µM |

Next compound, TGI to be filled in.
IN: Supply reported TGI belonging to this compound: N#CC1CNC(N)NC1N (centres undefined)
OUT: > 100 µM

---

Test system: OVCAR-4 ovarian
measurement.description: NCI tumour cell line growth inhibition, 48 h
Reported TGI values for the following compounds.

| compound | observed.value |
| --- | --- |
| CC(=O)OC1CC2(C)C(OC(C)=O)CC1C2(C)C (stereo not drawn) | > 100 µM |

IN: In one line, give reported TGI of the entry O=c1c2ccc3cccc4c(=O)c5ccc6cccc1c6c5-c2c34 .
OUT: > 50 µM

IN: # return recorded TGI for input O=C(Nc1ccc(CN2CCOCC2)cc1)c1ccc(-c2cc(Cl)ccc2Cl)o1
OUT: 67.1 µM

IN: Let me know recorded TGI for CC1CC(c2ccc([N+](=O)[O-])cc2)=Nc2ccccc2S1 (stereo not drawn) , thanks.
OUT: 43.9 µM

IN: Please look at this compound and report its TGI: CC(C)(C)C1CCC2c3c([nH]c4ccccc34)C3C(=O)N(c4cccc([N+](=O)[O-])c4)C(=O)C3C2C1 (stereo not drawn)
OUT: > 100 µM

IN: Give TGI for the following compound: CCCc1onc(CCC(=O)N(Cc2ccccc2)Cc2ccccc2)c1CC
OUT: > 100 µM

IN: Quick one: give measured TGI for CC(=O)NCCc1c(-c2[nH]c3ccccc3c2CCNC(C)=O)[nH]c2ccccc12
OUT: > 100 µM

IN: For the compound FC(F)(F)c1nnn[n-]1.[Au+].c1ccc([PH+](c2ccccc2)c2ccccc2)cc1 , give its reported TGI.
OUT: 6.67 µM

IN: State its TGI: Nc1nc(SCCC/C=C/B(O)O)nc2c1ncn2C1OC(COP(=O)(O)O)C(O)C1O (stereo not drawn)
OUT: > 203 µM

IN: Tell me TGI reported for COc1cc2c(cc1O)NC(=S)[C@@H]1CCCN1C2=O
OUT: > 100 µM

IN: Determine from records and report TGI for Cn1c(O)c(C2=Nc3ccccc3C2=O)c2ccccc21
OUT: > 100 µM

IN: Please look at this compound and report its TGI: C1CSCCCSCCCSCCCSCCCSC1
OUT: > 100 µM

IN: Supply measured TGI of Cc1ccc2nc(-c3ccc(N)c(Br)c3)sc2c1 in your reply.
OUT: > 100 µM

IN: Respond only with TGI recorded for CC1CC(C)CC(NC2=NCCO2)C1 (stereo not drawn)
OUT: > 100 µM

IN: Return TGI (reported value) for this compound: CN(C)c1ccc(C(=O)NCCCCCCC(=O)NO)cc1
OUT: > 25.3 µM

IN: Provide measured TGI value, entry: CC(=O)O[C@H]1CC2C(C3CCC(C(C)CCC(=O)O)[C@]31C)[C@H](OC(C)=O)C[C@@H]1CC3(CC[C@]21C)OOC1(CC[C@]2(C)C4C[C@H](OC(C)=O)[C@]5(C)C(C(C)CCC(=O)O)CCC5C4[C@H](OC(C)=O)C[C@@H]2C1)OO3 (stereo partly drawn)
OUT: 9.84 µM

IN: Return reported TGI. Input compound: CCCCN1CCN(c2ccc3nc(-c4ccc5nc(-c6ccc(OC)c(OC)c6)[nH]c5c4)[nH]c3c2)CC1
OUT: 1.88 µM

IN: Look up TGI of COc1cc(S(=O)(=O)Nc2nc(-c3ccc(N=Cc4cccs4)cc3)cs2)ccc1Cl and report it.
OUT: > 100 µM
